- measured-target: Aurora Kinase 1 (Homo sapiens)
- Construct: endogenous in cells
- Sequence (Q96GD4 whole entry): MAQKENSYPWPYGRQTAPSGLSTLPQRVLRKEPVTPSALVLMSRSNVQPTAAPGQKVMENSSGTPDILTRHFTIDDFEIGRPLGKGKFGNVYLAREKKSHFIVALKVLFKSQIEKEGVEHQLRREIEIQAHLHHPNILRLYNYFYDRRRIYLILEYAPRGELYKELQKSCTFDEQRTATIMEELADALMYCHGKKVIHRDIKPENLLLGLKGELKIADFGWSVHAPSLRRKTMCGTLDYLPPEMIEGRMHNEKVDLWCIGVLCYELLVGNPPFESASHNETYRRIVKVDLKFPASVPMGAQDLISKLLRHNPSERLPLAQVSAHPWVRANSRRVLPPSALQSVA
- procedure-summary: capture ELISA measuring Aurora Kinase 1 autophosphorylation in HT29 colon carcinoma cells
- details: HT29 cells synchronized for 24 hours, compound treatment 2 hours
pIC50: −log10 of the molar value.
metric: pIC50

Prompt: Return pIC50 measured with Aurora Kinase 1 (Homo sapiens) given this compound: Nc1ncnn2cc(C(=O)NCC(F)(F)F)c(-c3ccc(Nc4nc5ccc(Oc6ccc(F)cc6)c(F)c5[nH]4)cc3)c12 [Example 35]
Response: > 6.00

Prompt: Request: CC(C)(C)c1ccc2nc(Nc3ccc(-c4c(C(=O)NCC(F)(F)F)cn5ncnc(N)c45)cc3)[nH]c2c1 [Example 10]
Response: > 6.00

Okay, now this compound:
Prompt: Return pIC50 measured with Aurora Kinase 1 (Homo sapiens) given this compound: Nc1ncnn2cc(C(=O)NCC(F)(F)F)c(-c3ccc(Nc4nc5cc6c(cc5[nH]4)OC(F)(F)O6)cc3)c12 [Example 17]
Response: > 6.00
